Values were extracted from PubChem BioAssay AID1159580.

test.summary: chemical genetic growth profiling, strain panel (AID 1159580);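 also: tested at 20 µM; growth read once vehicle control cultures reached saturation at 30 °C; 1 = growth at the plate median or of vehicle wells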
conditions: S. cerevisiae deletion strains, growth OD, locus YEL061C, strain CIN8, stronger effect = lower value
Among all 5,500 compounds or so, about 2,000 (36%) were called active. Not shown: some 18% with an inconclusive outcome. The list shows a part of the results.
Label Y when normalized growth is strictly below 1; at or above that, label N.

compound	assigned.category
Cc1c(C(=O)O)cc(-c2ccccc2)n1-c1ccccc1	Y
COc1cc(O)c2c(=O)cc(C)oc2c1CC=C(C)C	Y
COc1cc2c(cc1OC)C(=O)C(CC1CCN(Cc3ccccc3)CC1)C2 (centres undefined)	N
O=C1CC(c2ccc(O)cc2)Oc2ccccc21 (centres undefined)	Y
COc1ccc(-c2coc3c(O)c(OC)ccc3c2=O)cc1	Y

Shift focus to the following entry.
Regarding `COc1c(O)cc2oc3cc(O)c(CC=C(C)C)c(O)c3c(=O)c2c1CC=C(C)C` , kindly confirm whether its normalized growth is beneath 1.
Y

====

test.summary: chemical genetic growth profiling, strain panel (AID 1159580);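 also: tested at 20 µM; growth read once vehicle control cultures reached saturation at 30 °C; 1 = growth at the plate median or of vehicle wells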
conditions: S. cerevisiae deletion strains, growth OD, locus YLR113W, strain HOG1, stronger effect = lower value
Out of some 5,500 compounds screened, about 2,000 (36%) were called active. Not shown: some 18% with an inconclusive outcome. Some of the results follow.
In plain terms, low normalized growth, meaning strictly below 1, gives fulfilled, and everything else gives not fulfilled.

Identify whether the compound `CCCCOc1ccc(C(=O)CCN2CCCCC2)cc1` records normalized growth below 1.
not fulfilled

Does `O=c1ccc2cc(O)c(O)cc2o1` have normalized growth strictly under 1?
fulfilled

Does this compound meet the criterion normalized growth < 1? NCC1CCCCC1CC(=O)O (centres undefined)
fulfilled

I wonder whether `NC(=O)N1c2ccccc2CC(=O)c2ccccc21` has normalized growth below 1. Can you tell?
fulfilled

Quick check: normalized growth of `OC(CCN1CCCCC1)(c1ccccc1)c1ccccc1` under 1?
not fulfilled

====

test.summary: chemical genetic growth profiling, strain panel (AID 1159580);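 also: tested at 20 µM; growth read once vehicle control cultures reached saturation at 30 °C; 1 = growth at the plate median or of vehicle wells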
conditions: S. cerevisiae deletion strains, growth OD, locus YHR205W, strain SCH9
The campaign covered roughly 5,500 compounds. About 2,000 (36%) were called active. Inconclusive results (about 18%) are left out. No stated cut-off is given here; in the data, active means normalized growth mostly below about 0.91 (no sharp cut-off); inconclusive means no clear call, values can overlap the other calls; inactive means mostly above about 0.92. The list shows a part of the results.
Please state which outcome applies, choosing from active, inactive

molecule.smiles	assigned.category
O=C(Nc1cc(Cl)cc(Cl)c1)Nc1cc(-c2ccco2)[nH]n1	active
O=C(CCN1CCCCC1)c1ccc(-c2ccccc2)cc1	active

Which outcome was assigned to `O=C(Nc1c(Br)c(C2CC2)nn1-c1ccccc1)C(Cl)(Cl)Cl` in this test?
inactive

====

test.summary: chemical genetic growth profiling, strain panel (AID 1159580);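 also: tested at 20 µM; growth read once vehicle control cultures reached saturation at 30 °C; 1 = growth at the plate median or of vehicle wells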
conditions: S. cerevisiae deletion strains, growth OD, locus YNR030W, strain Alg12, stronger effect = lower value
Out of some 5,500 compounds screened, about 2,000 (36%) were called active. Not shown: some 18% with an inconclusive outcome. The list shows a part of the results.
endpoint.label: normalized growth

Known normalized growth results, listed for orientation:
compound	normalized growth
O=C(O)CSCCOc1ccccc1	1.02 (inactive)
O=C(Nc1ccccc1C(=O)NC1CCCCNC1=O)c1cccs1 (centres undefined)	1.02 (inactive)

Item: `NC1=C(c2ccccc2)C(=O)NC1=O` | normalized growth: 0.989 (inactive)

GET /value?item= `Cc1cc(NC(=O)C(Cl)(Cl)Cl)n(-c2ccccc2)n1` &field=normalized growth returns 0.974 (inactive)
